study.system: cloned human kappa receptor (Homo sapiens)
assay: biochemical
Type: binding
condition.details: Ki (nM) k [3H] Diprenorphin
measured.parameter: Ki (nM)
Answers are plain numbers, in nM.

Solved cases below.
COc1ccc2c(c1)[C@H](N(C)C(=O)C(c1ccccc1)c1ccccc1)[C@@H](N1CCCC1)CC2 (racemic) | 142
CCOC(=O)CN(CC(=O)OCC)c1ccc2c(c1)[C@H](N(C)C(=O)Cc1ccc(Cl)c(Cl)c1)[C@@H](N1CCCC1)CC2 (racemic) | 4.6
CN(C(=O)Cc1ccc(Cl)c(Cl)c1)[C@H]1c2cc(S(=O)(=O)N(C)Cc3ccccc3)ccc2CC[C@@H]1N1CCCC1 (racemic) | 200
CN(C(=O)Cc1ccc(Cl)c(Cl)c1)[C@H]1c2cc(N(CC(=O)OC(C)(C)C)CC(=O)OC(C)(C)C)ccc2CC[C@@H]1N1CCCC1 (racemic) | 7.4
COc1cc2c(cc1S(=O)(=O)N(C)Cc1ccccc1)[C@H](N(C)C(=O)Cc1ccc(Cl)c(Cl)c1)[C@@H](N1CCCC1)CC2 (racemic) | 48

Kindly give each listed record's Ki.
1. CN(C(=O)Cc1ccc(Cl)c(Cl)c1)[C@H]1c2cc(N(CC(=O)O)CC(=O)O)ccc2CC[C@@H]1N1CCCC1 (racemic)
2. CCOP(=O)(Nc1ccc2c(c1)[C@H](N(C)C(=O)Cc1ccc(Cl)c(Cl)c1)[C@@H](N1CCCC1)CC2)OCC (racemic)
3. CCOP(=O)(CCNc1ccc2c(c1)[C@H](N(C)C(=O)Cc1ccc(Cl)c(Cl)c1)[C@@H](N1CCCC1)CC2)OCC (racemic)

*A*
[3.8, 2.4, 6.2]

* * *

study.system: cloned human kappa receptor (Homo sapiens, UniProt P41145)
Sequence (P41145 whole entry): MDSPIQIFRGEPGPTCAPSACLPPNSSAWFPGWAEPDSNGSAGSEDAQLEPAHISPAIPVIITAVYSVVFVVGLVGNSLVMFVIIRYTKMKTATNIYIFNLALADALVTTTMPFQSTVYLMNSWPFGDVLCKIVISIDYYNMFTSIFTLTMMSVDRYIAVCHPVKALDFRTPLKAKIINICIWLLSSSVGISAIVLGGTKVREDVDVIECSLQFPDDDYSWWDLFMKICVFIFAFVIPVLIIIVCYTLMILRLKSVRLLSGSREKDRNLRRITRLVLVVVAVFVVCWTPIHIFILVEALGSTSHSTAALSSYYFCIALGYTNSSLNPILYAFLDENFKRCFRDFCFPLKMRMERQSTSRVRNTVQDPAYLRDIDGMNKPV
assay: biochemical
Type: binding
condition.details: Table IIIA; read-out: Ki (nM) [3H]-Diprenorphin κ
Counter-ions that a name gives are not always drawn.
measured.parameter: Ki (nM)
Answers are plain numbers, in nM.

*Q* Test system cloned human kappa receptor (Homo sapiens, UniProt P41145); read-out Ki; what value for CN(C(=O)Cc1ccc(C(F)(F)F)cc1NCC(=O)O)[C@H](CN1CCCC1)c1ccccc1 [Example 3b, hydrochloride] ?
*A* 464

* * *

Please provide measured 3H-Diprenorphin, % @ 1 uM for the entries that follow.
study.system: cloned human kappa receptor (Homo sapiens)
assay: biochemical
Assay type: binding
Answers are plain numbers, in % @ 1 uM.

Solved cases below.
Cl.Cl.NC(CC(=O)O)C(=O)N1CCN(C(=O)Cc2ccc(Cl)c(Cl)c2)[C@H](CN2CCCC2)C1 (stereo partly shown) [(R-3e)] | 39
CC(C)(C)CC(=O)N1CCN(C(=O)Cc2ccc(Cl)c(Cl)c2)[C@H](CN2CCCC2)C1 [(R-3b)] | 30

Kindly give each listed record's 3H-Diprenorphin, % @ 1 uM.
1. CC(C)(C)OC(=O)N[C@H](CC(=O)OCc1ccccc1)C(=O)N1CCN(C(=O)Cc2ccc(Cl)c(Cl)c2)[C@H](CN2CCCC2)C1 [(R-3d)]
2. CS(=O)(=O)N1CCN(C(=O)Cc2ccccc2[N+](=O)[O-])[C@H](CN2CCCC2)C1.Cl (racemic) [(R,S-8c)]

*A*
1: 36; 2: 15

* * *

study.system: cloned human kappa receptor (Homo sapiens)
assay: [3H]U69593 (agonist) binding to the cloned human kappa receptor
measured.parameter: Ki (nM)
Numbers only, in nM.

*Q* Test system cloned human kappa receptor (Homo sapiens); read-out Ki; what value for CN(C(=O)C(c1ccccc1)c1ccccc1)[C@H]1c2ccccc2C[C@@H]1N1CCCC1 (racemic) ?
*A* 146

* * *

System: formalin-induced flinching
assay: animal or person
Format: in vivo, male Sprague-Dawley rats
condition.details: rat, in vivo
Counter-ions that a name gives are not always drawn.
measured.parameter: Late Phase Formalin, % @ 300 (% @ 300)
One number for each entry, in % @ 300.

Solved cases below.
CNS(=O)(=O)c1cccc(CC(=O)N(C)[C@H](CN2CCCC2)c2ccccc2)c1OC | 48
CN(C(=O)Cc1ccc(Cl)c(S(N)(=O)=O)c1)[C@H](CN1CCCC1)c1ccccc1.CS(=O)(=O)O | 65
CN(C(=O)Cc1ccc(C(F)(F)F)cc1NC(=O)/C=C\C(=O)O)[C@H](CN1CCCC1)c1ccccc1 | 98

*Q* Late Phase Formalin, % @ 300 lookup needed for COC(=O)CNC(=O)c1ccccc1CC(=O)N(C)[C@H](CN1CCCC1)c1ccccc1 [Example 3mm, hydrochloride] , thanks.
*A* 53

* * *

study.system: cloned human kappa receptor (Homo sapiens)
assay: biochemical
Format: binding
condition.details: Ki(nM) diprenorphine
Counter-ions that a name gives are not always drawn.
measured.parameter: Ki
Please answer using the number first and the unit second.

*Q* Ki lookup needed for CN(C(=O)C(c1ccccc1)c1ccccc1)C1CCCCC1N1CCCC1 (racemic) [Example 5s, Hydrochloride] , thanks.
*A* 1170 nM

* * *

study.system: cloned human kappa receptor (Homo sapiens, UniProt P41145)
assay: biochemical
Type: binding
condition.details: Ki (nM) [3H]-Diprenorphin κ
Structures can show the parent of a compound that is named as a salt.
measured.parameter: Ki (nM)
One number for each entry, in nM.

Solved cases below.
CN(C(=O)Cc1ccc(Cl)c(Cl)c1)[C@H](CN1CCCC1)c1cccc(NC(=O)CCC(=O)NCC(=O)O)c1 [Example 3j, hydrochloride] | 2.3
CNS(=O)(=O)c1ccc(CC(=O)N(C)[C@H](CN2CC[C@H](O)C2)c2ccccc2)cc1 [Example 146] | 1
CCOC(=O)/C=C/C(=O)Nc1cc(Cl)c(Cl)cc1CC(=O)N(C)[C@H](CN1CCCC1)c1ccccc1 [Example 3y, hydrochloride] | 0.35

Kindly give each listed record's Ki.
1. COc1ccc(CC(=O)N(C)[C@H](CN2CC[C@H](O)C2)c2ccccc2)cc1NS(C)(=O)=O [Example 127]
2. CN(C(=O)Cc1cc2c(cc1S(=O)(=O)N(C)Cc1ccccc1)OCO2)[C@H](CN1CCCC1)c1ccccc1 [Example 131]
3. COc1cc(CC(=O)N(C)[C@H](CN2CCCC2)c2ccccc2)c(S(=O)(=O)N(C)CC(=O)O)cc1OC [Example 142]
4. COc1cc(CC(=O)N(C)[C@H](CN2CCCC2)c2ccccc2)c(S(=O)(=O)N(C)C)cc1OC [Example 136]
5. CN(C(=O)Cc1ccc(Cl)c(Cl)c1)[C@H](CN1CCCC1)c1cccc(NS(C)(=O)=O)c1.Cl [Example 3f, hydrochloride]
6. COc1cc(CC(=O)N(C)[C@H](CN2CC[C@H](O)C2)c2ccccc2)c(S(=O)(=O)N2CCOCC2)cc1OC [Example 141]

*A*
[0.82, 0.22, 13, 0.44, 0.18, 1.3]

Kindly give each listed record's Ki.
1. CN(C(=O)Cc1ccc(O)c(N(S(C)(=O)=O)S(C)(=O)=O)c1)[C@H](CN1CCCC1)c1ccccc1 [Example 130]
2. CNS(=O)(=O)c1cc(CC(=O)N(C)[C@H](CN2CCCC2)c2ccccc2)ccc1Cl.Cl [Example 3l, hydrochloride]
3. CN(C(=O)Cc1ccc(Cl)c(Cl)c1)[C@H](CN1CCCC1)c1cccc(NC(=O)/C=C\C(=O)O)c1 [Example 3h]

*A*
1.3
3.8
1.8

* * *

System: formalin-induced flinching
assay: animal or person
Format: in vivo, male Sprague-Dawley rats
condition.details: rat, in vivo
Counter-ions that a name gives are not always drawn.
Please provide measured Late Phase Formalin, % @ 300 for the entries that follow.
One number for each entry, in % @ 300.

CNS(=O)(=O)c1cc(CC(=O)N(C)[C@H](CN2CCCC2)c2ccccc2)ccc1Cl.Cl | 73
CN(C(=O)Cc1ccc(S(C)(=O)=O)cc1)[C@H](CN1CCCC1)c1cccc(NS(C)(=O)=O)c1.CS(=O)(=O)O | 71
CNS(=O)(=O)c1cc(CC(=O)N(C)[C@H](CN2CCCC2)c2ccccc2)ccc1F.Cl | 59
CN(C(=O)Cc1ccc(Cl)c(Cl)c1)[C@H](CN1CCCC1)c1cccc(NC(=O)CCC(=O)NCC(=O)O)c1 [Example 3j, hydrochloride] | 38
CC(C)COC(=O)CNC(=O)CCC(=O)Nc1cccc([C@@H](CN2CCCC2)N(C)C(=O)Cc2ccc(Cl)c(Cl)c2)c1 [Example 3i, hydrochloride] | 23

Now consider a different molecule.
*Q* Late Phase Formalin, % @ 300 lookup needed for `CN(C(=O)Cc1ccccc1C(=O)O)[C@H](CN1CCCC1)c1ccccc1.Cl` , thanks.
*A* 23

* * *

Please provide measured inhibition at 1 µM for the entries that follow.
study.system: cloned human kappa receptor (Homo sapiens)
assay: biochemical
Type: binding
condition.details: read-out: 3H-Diprenorphin, % @ 1 uM
Structures can show the parent of a compound that is named as a salt.
Numbers only, in %.

Solved cases below.
Cl.O=CN1CCN(C(=O)Cc2ccc(Cl)c(Cl)c2)[C@H](CN2CCCC2)C1 [(R-3j), hydrochloride] | 96
CS(=O)(=O)N1CCN(C(=O)Cc2c[nH]c3ccccc23)C(CN2CCCC2)C1 (racemic) [(R,S-8e), hydrochloride] | 74
CC(=O)N1CCN(C(=O)Cc2cccc([N+](=O)[O-])c2)C(CN2CCCC2)C1 (racemic) [(R,S-10d), hydrochloride] | 94
CC(=O)N1CCN(C(=O)Cc2ccccc2C(F)(F)F)C(CN2CCCC2)C1 (racemic) [(R,S-10c), hydrochloride] | 45
CC(=O)N1CCN(C(=O)Cc2ccc([N+](=O)[O-])cc2)C(CN2CCCC2)C1 (racemic) [(R,S-10f), hydrochloride] | 59
CC(=O)N1CCN(C(=O)Cc2ccc(S(C)(=O)=O)cc2)C(CN2CCCC2)C1 (racemic) [(R,S-10a), hydrochloride] | 27
CS(=O)(=O)c1ccc(CC(=O)N2CCN(S(C)(=O)=O)CC2CN2CCCC2)cc1 (racemic) [(R,S-8b), hydrochloride] | 41

*Q* inhibition at 1 µM lookup needed for Cl.Cl.O=C(O)CN1CCN(C(=O)Cc2ccc(Cl)c(Cl)c2)[C@H](CN2CCCC2)C1 [(R-3c), dihydrochloride] , thanks.
*A* 62
